Target: purified HLA DRB1*1501 (Homo sapiens, UniProt P01903+P01911)
Construct: purified from EBV transformed homozygous cell lines or single MHC allele transfected 721.221, C1R, or fibroblast lines; made in house
Assay: HLA-DR radioligand binding inhibition assay, DRB1*1501
Listing of entries alongside the reported IC50.
Express the result in nM but write the number alone.

Sample records with IC50:
Compound | IC50 / nM
CC(C)C[C@H](NC(=O)[C@H](CCCNC(=N)N)NC(=O)[C@H](CCC(=O)O)NC(=O)[C@@H]1CCCN1)C(=O)N[C@@H](C)C(=O)N[C@@H](C)C(=O)N[C@@H](CS)C(=O)NCC(=O)N1CCC[C@H]1C(=O)N1CCC[C@H]1C(=O)N1CCC[C@H]1C(=O)N[C@H](C(=O)N[C@@H](C)C(=O)N1CCC[C@H]1C(=O)N1CCC[C@H]1C(=O)O)C(C)C [Peptide 9019.0179] | 4050
CC[C@H](C)[C@H](N)C(=O)N[C@@H](CCCNC(=N)N)C(=O)N[C@@H](CCCCN)C(=O)N[C@@H](Cc1ccc(O)cc1)C(=O)N[C@H](C(=O)N[C@@H](CCSC)C(=O)N[C@@H](CCCNC(=N)N)C(=O)N[C@@H](CCCNC(=N)N)C(=O)N[C@@H](CC(C)C)C(=O)N[C@@H](CC(C)C)C(=O)N[C@@H](CCC(N)=O)C(=O)N[C@@H](CCC(=O)O)C(=O)N[C@H](C(=O)N[C@@H](CCC(=O)O)C(=O)N[C@@H](CC(C)C)C(=O)O)[C@@H](C)O)[C@@H](C)O [Peptide 9019.0071] | 1.6
CC[C@H](C)[C@H](NC(=O)CNC(=O)[C@@H](NC(=O)[C@@H](NC(=O)[C@H](C)NC(=O)[C@H](CO)NC(=O)[C@@H](NC(=O)[C@@H](NC(=O)[C@H](CO)NC(=O)[C@@H](NC(=O)[C@H](CC(C)C)NC(=O)[C@@H]1CCCN1C(=O)[C@H](CO)NC(=O)[C@H](C)N)[C@@H](C)O)[C@@H](C)CC)[C@@H](C)CC)C(C)C)C(C)C)C(=O)N[C@@H](CC(C)C)C(=O)O [Peptide 9019.0066] | 59
CC[C@H](C)[C@H](NC(=O)CNC(=O)[C@H](CS)NC(=O)[C@@H](N)C(C)C)C(=O)N[C@@H](CCC(N)=O)C(=O)N[C@@H](CC(N)=O)C(=O)N[C@@H](CO)C(=O)N[C@H](C(=O)N[C@@H](CO)C(=O)N[C@@H](C)C(=O)N[C@@H](CC(N)=O)C(=O)N[C@@H](CCCNC(=N)N)C(=O)N[C@@H](CO)C(=O)N[C@@H](CC(=O)O)C(=O)N1CCC[C@H]1C(=O)O)C(C)C [Peptide 9019.0135] | 8980

Pending compound:
Form field: reported IC50 of CC[C@H](C)[C@H](NC(=O)[C@@H](N)CO)C(=O)N[C@H](C(=O)N[C@H](C(=O)N[C@@H](CO)C(=O)N[C@@H](C)C(=O)N[C@@H](CO)C(=O)NCC(=O)N[C@H](C(=O)N[C@@H](CO)C(=O)N1CCC[C@H]1C(=O)NCC(=O)N[C@@H](CC(C)C)C(=O)N[C@@H](CO)C(=O)N[C@@H](C)C(=O)O)[C@@H](C)O)C(C)C)[C@@H](C)O [Peptide 9019.0143]
3110

###

Target: purified HLA DRB1*1302 (Homo sapiens, UniProt P01903+P01911, A100E/A169T/K41T/L162R/M171V/P40S/Q125H/Q178H/Q39Y/Q99D/R42S/S66N/T262R/V115G/W38E/Y61H)
Construct: purified from EBV transformed homozygous cell lines or single MHC allele transfected 721.221, C1R, or fibroblast lines; made in house
Experiment: HLA-DR radioligand binding inhibition assay, DRB1*1302
Response field label takes fulfilled when IC50 is strictly below 3000 nM and not fulfilled in all other cases.

Before answering, review these 4 worked examples.
Compound | Assigned label
CC(C)C[C@H](NC(=O)[C@H](CCCCN)NC(=O)[C@H](CCCCN)NC(=O)[C@@H]1CCCN1C(=O)[C@@H](N)CCC(=O)O)C(=O)N[C@@H](CCCNC(=N)N)C(=O)N1CCC[C@H]1C(=O)N1CCC[C@H]1C(=O)N1CCC[C@H]1C(=O)N[C@@H](C)C(=O)N[C@@H](CCCNC(=N)N)C(=O)N[C@H](C(=O)N1CCC[C@H]1C(=O)N[C@@H](CS)C(=O)N[C@@H](CCC(N)=O)C(=O)O)[C@@H](C)O [Peptide 9019.0188] | fulfilled
CSCC[C@H](NC(=O)CNC(=O)[C@H](CC(C)C)NC(=O)[C@H](CC(=O)O)NC(=O)CNC(=O)[C@@H](N)CC(=O)O)C(=O)NCC(=O)N[C@@H](C)C(=O)N[C@@H](C)C(=O)N[C@@H](CCCCN)C(=O)NCC(=O)N[C@@H](CC(C)C)C(=O)N[C@@H](CCC(N)=O)C(=O)N[C@@H](CO)C(=O)N[C@@H](CC(C)C)C(=O)O [Peptide 9019.0097] | not fulfilled
CC[C@H](C)[C@H](NC(=O)CNC(=O)[C@@H](NC(=O)[C@@H](NC(=O)[C@H](C)NC(=O)CNC(=O)[C@H](C)NC(=O)[C@H](CO)NC(=O)[C@H](CC(C)C)NC(=O)CNC(=O)[C@@H]1CCCN1C(=O)[C@@H](N)CO)[C@@H](C)O)C(C)C)C(=O)N[C@@H](CCSC)C(=O)N[C@H](C(=O)NCC(=O)O)[C@@H](C)CC [Peptide 9019.0144] | fulfilled
CC(C)C[C@H](NC(=O)[C@H](C)NC(=O)[C@H](Cc1ccc(O)cc1)NC(=O)[C@H](CC(N)=O)NC(=O)[C@H](CC(=O)O)NC(=O)[C@H](CCC(=O)O)NC(=O)[C@H](Cc1ccccc1)NC(=O)[C@H](CC(C)C)NC(=O)[C@H](CCC(N)=O)NC(=O)[C@@H](NC(=O)CN)[C@@H](C)O)C(=O)N[C@@H](C)C(=O)N[C@H](C(=O)N[C@@H](CC(C)C)C(=O)N[C@@H](CC(=O)O)C(=O)O)C(C)C [Peptide 9019.0001] | fulfilled

API: query returns whether the compound falls strictly under 3000 nM in IC50. Query: CC(C)C[C@H](NC(=O)[C@H](CC(N)=O)NC(=O)CNC(=O)[C@H](CCC(N)=O)NC(=O)[C@@H](NC(=O)[C@@H](NC(=O)[C@H](CCC(N)=O)NC(=O)[C@H](CS)NC(=O)CNC(=O)[C@H](CCC(N)=O)NC(=O)[C@H](Cc1ccc(O)cc1)NC(=O)[C@H](CC(C)C)NC(=O)[C@H](Cc1c[nH]cn1)NC(=O)[C@@H](N)CCCNC(=N)N)C(C)C)C(C)C)C(=O)N[C@@H](CCC(=O)O)C(=O)O [Peptide 9019.0028]
not fulfilled

###

Biological target: purified HLA DRB1*0401 (Homo sapiens, UniProt P01903+P01911, A100K/A169T/F76Y/I96L/K127E/L162R/M171V/N62H/P40V/Q125Y/R42H/S133A/S149N/S66Y/V115G/V209L/W38E)
Construct: purified from EBV transformed homozygous cell lines or single MHC allele transfected 721.221, C1R, or fibroblast lines; made in house
Test: HLA-DR radioligand binding inhibition assay, DRB1*0401
Settings: IC50 nM purified HLA DRB1 *0401, purified HLA DRB1*0401
Listing of entries alongside the reported IC50.
Express the result in nM but write the number alone.

Compound | Endpoint name | Measured
CC[C@H](C)[C@H](NC(=O)[C@H](Cc1ccccc1)NC(=O)[C@H](CC(=O)O)NC(=O)[C@H](Cc1c[nH]cn1)NC(=O)[C@@H]1CCCN1)C(=O)N[C@@H](CCC(=O)O)C(=O)N[C@@H](Cc1c[nH]cn1)C(=O)N[C@@H](Cc1ccccc1)C(=O)N[C@@H](CC(C)C)C(=O)N[C@@H](CO)C(=O)N[C@@H](CCCCN)C(=O)N[C@@H](CCSC)C(=O)N1CCC[C@H]1C(=O)N[C@@H](CCC(=O)O)C(=O)N[C@@H](C)C(=O)O [Peptide 9019.0166] | IC50 | 1300
CC(C)C[C@H](NC(=O)[C@@H](N)Cc1ccc(O)cc1)C(=O)N[C@@H](Cc1c[nH]c2ccccc12)C(=O)N[C@@H](Cc1c[nH]c2ccccc12)C(=O)N[C@H](C(=O)N[C@@H](CC(N)=O)C(=O)NCC(=O)N[C@@H](CCC(N)=O)C(=O)N[C@@H](CO)C(=O)N[C@@H](CC(C)C)C(=O)N1CCC[C@H]1C(=O)N[C@H](C(=O)N[C@@H](CO)C(=O)N1CCC[C@H]1C(=O)N[C@@H](CCCNC(=N)N)C(=O)O)C(C)C)C(C)C [Peptide 9019.0134] | IC50 | 2.5

Pending compound:
Form field: reported IC50 of CC(C)C[C@H](NC(=O)[C@H](CC(N)=O)NC(=O)CNC(=O)[C@H](CCC(N)=O)NC(=O)[C@@H](NC(=O)[C@@H](NC(=O)[C@H](CCC(N)=O)NC(=O)[C@H](CS)NC(=O)CNC(=O)[C@H](CCC(N)=O)NC(=O)[C@H](Cc1ccc(O)cc1)NC(=O)[C@H](CC(C)C)NC(=O)[C@H](Cc1c[nH]cn1)NC(=O)[C@@H](N)CCCNC(=N)N)C(C)C)C(C)C)C(=O)N[C@@H](CCC(=O)O)C(=O)O [Peptide 9019.0028]
422
